system: Sonic hedgehog protein (Shh); assay: small-molecule binders of Shh protein, primary screen, biochemical, small-molecule microarray, 635/667 nm fluorescence (AID 1151); conditions: small-molecule microarray binding, 635 nm fluorescence; higher = more signal;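 further: Shh protein binding to compounds spotted on small-molecule microarray slides; score combines spot fluorescence intensity with signal-to-noise across triplicate slides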

molecule	composite z-score
COCC1=C2[C@@H](CCc3ccccc3)OB(O)C[C@@H]2[C@@H]2C(=O)N(C)C(=O)[C@@H]2C1	0.588
CC(C)[C@H]1NC(=O)[C@@]23C(=O)N[C@@H](Cc4ccccc4)C2[C@H](C)[C@@]2(C)O[C@H]2C3/C=C/C/C=C\CNC(=O)[C@H](Cc2ccccc2)NC1=O (stereo partly drawn)	1.96
CCN(CC)c1ccc(N2CC=CC34O[C@@H]5C=CCCOC(=O)C5[C@H]3C(=O)N(CCO)[C@@H]4C2=O)cc1 (stereo partly drawn)	-0.0352
O=C(N1CCOCC1)[C@@]1(CCS(=O)(=O)c2ccccc2)N=C(c2ccc(OCCCO)cc2)O[C@H]1c1ccccc1	-0.514
COC(=O)C(CC#Cc1ccc2c(c1)[C@]1(C(=O)N2)[C@H](c2ccc(OCCO)cc2)N2[C@H](c3ccccc3)[C@H](c3ccccc3)OC(=O)[C@H]2[C@@H]1C(=O)N1CCN(c2ncccn2)CC1)C(=O)OC	1.2
CCOC(=O)C1=C[C@@H](C(C)(C)C)N(S(=O)(=O)c2ccc(C)cc2)[C@H]1c1cccc(Cl)c1	0.163
[N-]=[N+]=Nc1ccccc1C[C@]1(C(=O)NCc2ccccc2)COC(c2ccc(OCCCO)cc2)=N1	0.153
CC(C)CNC(=O)[C@@H]1c2ccccc2C(=O)N(C2CCCCC2)[C@H]1c1ccc(CO)cc1	-0.242
CN(C)C(=O)[C@@]1(Cc2ccccc2)COC(c2ccc(OCCCO)cc2)=N1	-0.618
C=CCC(OC(C)=O)[C@@H]1[C@@H](N(Cc2cccc3ccccc23)C(=O)c2ccc(-c3ccccc3)cc2)c2cc(OCCCO)ccc2N1C(=O)c1ccc(-c2ccccc2)cc1 (stereo partly drawn)	0.286
COCCOC(=O)N1C(=O)[C@@]2(c3cc(C#CCNC(N)=O)ccc31)[C@H](c1ccc(O)cc1)N1[C@H](c3ccccc3)[C@H](c3ccccc3)OC(=O)[C@H]1[C@@H]2C(N)=O	-1.56
C=CCOC(=O)[C@H]1[C@@H]2C(=O)O[C@@H](c3ccccc3)[C@@H](c3ccccc3)N2[C@@H](c2ccc(OCCOC(=O)[C@H]3C[C@H]4C(=O)N[C@@H](CCCCNC(C)=O)C(=O)N4[C@H]3c3cccc(OCCO)c3)cc2)[C@]12C(=O)Nc1ccc(I)cc12	2.46
CCOC(=O)C[C@H]1[C@H](OC(=O)c2cc3ccccc3oc2=O)[C@@H](NC(=O)c2ccc3ccccc3c2)c2cc(OCCCO)ccc2N1C(=O)Cc1ccc(OC)cc1	0.47
